Source: patent US5648336A

# STUDY SYSTEM: B1 receptors (Oryctolagus cuniculus)
# Construct: The thorax was opened and the thoracic aorta carefully removed; from tissue; host or cells: rabbit thoracic aorta spiral strips
# Sequence (P48748 whole entry): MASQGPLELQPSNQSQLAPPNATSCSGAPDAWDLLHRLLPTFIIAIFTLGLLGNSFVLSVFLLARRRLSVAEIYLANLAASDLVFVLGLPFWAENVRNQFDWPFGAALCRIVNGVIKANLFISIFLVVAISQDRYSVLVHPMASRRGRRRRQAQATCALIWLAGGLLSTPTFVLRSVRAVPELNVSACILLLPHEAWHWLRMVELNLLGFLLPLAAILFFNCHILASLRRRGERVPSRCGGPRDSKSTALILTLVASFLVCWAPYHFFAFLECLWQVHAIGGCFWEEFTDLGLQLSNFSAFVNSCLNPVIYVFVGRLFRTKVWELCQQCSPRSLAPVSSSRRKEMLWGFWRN
# ASSAY PROTOCOL: B1 receptor bioassay, rabbit aorta strips contracted with des-Arg9-BK
# Format: cell-based
# MEASUREMENT CONDITIONS: 50% reduction of sustained contraction to 10^-7 M des-Arg9-BK; read-out: Rabbit Aorta p IC50 B1 receptors (converted)
Square brackets hold non-standard residues; d marks the D form. Peptide text beside a SMILES is read from it. * marks the point of attachment. Adamantane1carbonyl = O=C(C12CC3CC(CC(C3)C1)C2)*; Oic = O=C(O)[C@@H]1C[C@@H]2CCCC[C@@H]2N1; dIgl = N[C@@H](C(=O)O)C1Cc2ccccc2C1; Hyp = O=C(O)[C@@H]1C[C@@H](O)CN1
ASSAY READOUT: IC50 (µM)
One number for each entry, in µM.

Exam item: // returns reported IC50 for input N=C(N)NCCC[C@H](NC(=O)[C@@H]1C[C@@H]2CCCC[C@@H]2N1C(=O)[C@H](NC(=O)[C@H](CO)NC(=O)[C@H](Cc1ccccc1)NC(=O)CNC(=O)[C@@H]1C[C@@H](O)CN1C(=O)[C@@H]1CCCN1C(=O)[C@H](CCCNC(=N)N)NC(=O)[C@@H](CCCNC(=N)N)NC(=O)C12CC3CC(CC(C3)C1)C2)C1Cc2ccccc2C1)C(=O)O [Compound 53] (Adamantane1carbonyl-[dR]RP[Hyp]GFS[dIgl][Oic]R-OH)
Marked response: 1.26
